The values you see were collected from the NIST ThermoML archive (doi:10.1021/je7003758).

- assay_setup: 298.15 K; 100 kPa; Liquid
Threshold check on mass density: at or above 1000 kg/m3 gives 1 (yes), strictly below gives 0 (no).

These recorded examples may help you get a feel for the data.
smiles_string	assigned_label
CCCCCl	0 (no)
CCCCCCCCCl	0 (no)
ClCCCCCCCl	1 (yes)
ClCCCCCl	1 (yes)
ClCCCl	1 (yes)

Exam item: Answer whether mass density of `CCCCCCCl` is greater than or equal to 1000 kg/m3.
Marked response: 0 (no)
